Please respond with reported yeast fitness for every item in the list.
B1: tRNA (parent)
chain: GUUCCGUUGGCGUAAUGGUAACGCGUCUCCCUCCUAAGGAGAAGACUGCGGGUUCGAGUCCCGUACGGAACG

variants of: B1; assay: yeast fitness relative to wild type (ratio to wild type); higher = fitter; tRNA-Arg(CCU), competitive growth, 37 C, YPD
Fewer inactive variants are shown than the library holds.
Provide a numeric answer; units are not to be included.

State its yeast fitness: C22G G41C 0.814

Output measured yeast fitness for this item: G12A C49U C62A 0.625

Provide yeast fitness value for the following variant: C5U U13A 0.842

Report yeast fitness, nothing else, for this variant: C29U A43G G44A C46A 0.609

Indicate the recorded yeast fitness value for this variant: U16G G52A 0.668

Please look at this variant and report its yeast fitness: C11U U47C A57G A69U 0.565

Return yeast fitness for the following variant: U32G A57U 0.527

Give reported yeast fitness value for A40G G67A A69C 0.513

Return value of yeast fitness for input C5A U28C , no commentary. 0.784

Give me measured yeast fitness, please, for this variant: A42C A69U 0.927

Hello, please tell me recorded yeast fitness for this one: G10C G63A 0.59

Let me know recorded yeast fitness for A15C A45C , thanks. 0.587

Give the measured yeast fitness for C22G A57U 0.619
